Give measured max activation for each item. Keep answers brief.
- System: Nuclear receptor subfamily 1 group I member 2 (Rattus norvegicus) (UniProt Q9R1A7)
- Sequence (Q9R1A7 whole entry, looked up): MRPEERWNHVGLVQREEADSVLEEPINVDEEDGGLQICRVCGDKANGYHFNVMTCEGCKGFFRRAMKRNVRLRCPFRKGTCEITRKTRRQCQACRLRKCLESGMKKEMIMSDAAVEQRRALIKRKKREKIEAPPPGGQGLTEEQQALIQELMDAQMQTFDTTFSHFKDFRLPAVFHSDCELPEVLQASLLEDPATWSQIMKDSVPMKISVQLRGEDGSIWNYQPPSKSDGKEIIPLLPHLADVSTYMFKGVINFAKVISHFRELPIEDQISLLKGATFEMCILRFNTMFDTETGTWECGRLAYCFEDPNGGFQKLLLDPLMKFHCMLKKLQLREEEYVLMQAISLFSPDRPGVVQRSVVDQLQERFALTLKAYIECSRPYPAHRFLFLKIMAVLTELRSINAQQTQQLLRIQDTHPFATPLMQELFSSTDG
- Protocol Summary: Rat pregnane X receptor (rPXR) activation by small molecules, qHTS assay (AID 1346983); note: % is set by controls: 0 for no effect and ±100 for the full control effect; nearly all actives have a fitted effect of over 20% in size
- Condition Parameters: rPXR luciferase reporter cells, One-Glo luminescence, 24 h; active compounds read high
Inconclusive results are not listed. Positions of bridges follow the written chain, without caps; N, C: chain ends. Non-standard residues stand in square brackets, D forms with d. Residues, ends and D or L forms follow the SMILES beside them. ξ: configuration not given here. *: point of attachment. d(aThr) = C[C@@H](O)[C@@H](N)C(=O)O; ξThr(3R) = C[C@@H](O)C(N)C(=O)O; X3 = CC[C@@H](C)CCCCC(=O)*; dDab = NCC[C@@H](N)C(=O)O
The reply should contain only the number, in %.

According to the records, this molecule CC(C)C[C@H](NC(=O)[C@@H](Cc1c[nH]c2ccccc12)NC(=O)[C@H](Cc1ccc(O)cc1)NC(=O)[C@H](CO)NC(=O)[C@H](Cc1c[nH]c2ccccc12)NC(=O)[C@H](Cc1cnc[nH]1)NC(=O)[C@@H]1CCC(=O)N1)C(=O)N[C@@H](CCCN=C(N)N)C(=O)N1CCC[C@@H]1C(=O)NCC(N)=O displays max activation of -2.6

Record summary for Nc1nc2c(c(=O)[nH]1)N(C=O)C(CNc1ccc(C(=O)N[C@@H](CCC(=O)O)C(=O)O)cc1)CN2 (stereo partly specified) : reported max activation = 3.43

Reported max activation for O=C(O)c1ccc(NC(=O)[C@H](Cc2ccc(O)cc2)NC(=O)c2ccccc2)cc1 was 0.18

Kindly note the recorded max activation for NCc1ccccc1CC(=O)N[C@@H]1C(=O)N2C(C(=O)O)=C(CSc3nnnn3CC(=O)O)CS[C@H]12 , which is -0.103

Looking up CNC(=O)c1c(I)c(C(=O)NCC(=O)Nc2c(I)c(C(=O)O)c(I)c(C(=O)NCCO)c2I)c(I)c(N(C)C(C)=O)c1I , I found its max activation recorded as -3.62

Documented max activation of CC[C@@H](C)CCCCC(=O)N[C@H](CCN)C(=O)N[C@@H](C(=O)N[C@H](CCN)C(=O)N[C@@H]1CCNC(=O)C([C@@H](C)O)NC(=O)[C@@H](CCN)NC(=O)[C@@H](CCN)NC(=O)[C@@H](CC(C)C)NC(=O)[C@@H](Cc2ccccc2)NC(=O)[C@@H](CCN)NC1=O)[C@@H](C)O (stereo partly drawn) (X3-[dDab][d(aThr)][dDab][dDab][dDab][dF][dL][dDab][dDab][ξThr(3R)]; lactam 4-C) : -6

max activation for CCCCC[C@H](O)/C=C/[C@H]1[C@H](O)CC(=O)[C@@H]1CCCCCCC(=O)O is -0.783

Item: OCCO[C@@H]1[C@@H](O)[C@H](O)[C@@H](CO)O[C@@H]1O | max activation: -3.49

Note to self: max activation recorded for CC1C(=O)CC2C3(C)CCC2(C(C)C(=O)O)C(=O)C13 (stereo unspecified) was 0.0537

max activation reported for this molecule COC(=O)[C@H]1[C@H]2C[C@@H]3c4[nH]c5cc(OC)ccc5c4CCN3C[C@H]2C[C@@H](OC(=O)/C=C/c2cc(OC)c(OC)c(OC)c2)[C@@H]1OC : -2.27

Looking up O=C(O)C1CCCN1 (stereo unspecified) , I found its max activation recorded as -0.193

Entry COC(=O)[C@@H](N)CS ; max activation = 0.531

# molecule CN1CCC(OC(=O)C(Oc2ccc(Cl)cc2)Oc2ccc(Cl)cc2)CC1 ; its max activation = -4.17

Lab note: COc1ccccc1N1CCN(CCCC(=O)c2ccc(F)cc2)CC1 gave max activation of 8.11

# max activation (molecule: COc1cc(/C=C/C(=O)N2CCN(CC(=O)N3CCCC3)CC2)cc(OC)c1OC ) is 0.536

Briefly, max activation measured for CC(C)(CO)[C@@H](O)C(=O)NCCCC(=O)O : -8.61

Measured max activation of CC(=O)Oc1cccc(C(=O)O)c1OC(C)=O : -1.97

The recorded max activation for entry O=C(OC[C@H]1O[C@](O)(COC(=O)c2cccnc2)[C@@H](OC(=O)c2cccnc2)[C@@H]1OC(=O)c1cccnc1)c1cccnc1 equals 1.1

Documented max activation of COc1ccc2c(c1)N(C[C@H](C)CN(C)C)c1ccccc1S2 : -5.19

response.value for CCCCCCCCCCCCOCCCN (field: max activation) = -3.73

response.value for COc1cc2c(cc1OC)CC(=O)N(CCCN(C)C[C@H]1Cc3cc(OC)c(OC)cc31)CC2 (field: max activation) = -0.416

// field: max activation; key: CCCCC(=O)O[C@H]1CC[C@H]2[C@@H]3CCc4cc(O)ccc4[C@H]3CC[C@]12C ; value = -1.73

response.value for CC(=O)Nc1ccc(NC(=S)NC(=O)c2ccc(C(C)(C)C)cc2)cc1 (field: max activation) = -2.69

max activation measured on CCN(CC)CCOc1ccccc1OC = -0.861

According to the records, this molecule CCSc1ccc2c(c1)N(CCCN1CCN(C)CC1)c1ccccc1S2 displays max activation of -0.528

Memo: CCC(Cc1c(I)cc(I)c(O)c1I)C(=O)O (stereo unspecified) , reported max activation: -2.63

So, CCC[C@@H]1C[C@@H](C(=O)N[C@@H]([C@H]2O[C@H](SC)[C@H](O)[C@@H](O)[C@H]2O)[C@H](C)Cl)N(C)C1 ? Its max activation was 7.71

Consider CCN(CC)Cc1cc(Nc2ccnc3cc(Cl)ccc23)ccc1O . Its measured max activation is -2.52

Entry CN1c2c(nc(N)[nH]c2=O)NCC1CNc1ccc(C(=O)NC(CCC(=O)O)C(=O)O)cc1 (stereo unspecified) ; max activation = -0.71

The reported value for CC1(C)[C@@H]2CC[C@@]1(C)[C@H](OC(=O)CSC#N)C2 in terms of max activation is 7.49

Reported max activation for CSc1nc2cc(Oc3cccc(Cl)c3Cl)c(Cl)cc2[nH]1 was -0.842

Form field max activation, entry CCC(C)[C@@H](N)C(=O)O (stereo partly specified) : -2.74

Reported max activation ( CC(O)CN(C)C (stereo unspecified) ) = -0.0612

Consider CCOC(=O)[C@H](CS)NCCN[C@@H](CS)C(=O)OCC . Its measured max activation is -0.64

Recorded max activation (molecule CNC(C)CCC=C(C)C (stereo unspecified) ): 2.06

Looking up NC(=O)OC[C@@H]1[C@H](NC(=O)/C(=N\OCC(=O)O)c2csc(N)n2)C(=O)N1S(=O)(=O)O , I see its max activation listed as -2.39

Summary for this molecule, CC(CN1c2ccccc2Sc2cccnc21)N(C)C (stereo unspecified) : max activation is -2.44

Reported max activation ( OC[C@@H](O)C(O)[C@H](O)CO ) = -1.82

Memo: CCN(CC)CCOc1ccc2nc(N(C)C)sc2c1 , reported max activation: 2.91

molecule COc1ccc2c(c1)OC(C)(C)C(c1ccccc1)C2c1ccc(OCCN2CCCC2)cc1 (stereo unspecified) , max activation observed: -6.65

max activation reading for O=C(CO)[C@@H](O)[C@H](O)[C@@H](O)C(=O)O : -2.1
